Molecular target: CCDC6-RET-BaF3 (Homo sapiens)
Construct: fused on or other part: Q16204 (Coiled-coil domain-containing protein 6)
Assay: Growth inhibition of CCDC6-RET-BaF3 cells stably transfected with kinase (MTS)
Type: cell-based
Conditions: 48 h, read-out: CCDC6-RET (IC50/nM)
Protocol: Growth inhibitory activity of compounds on cell lines stably transfected with kinase The activity of compounds against kinase RET is evaluated by their effect of inhibiting growth of cell lines stably transfected with kinase CCDC6-RET-BaF3, KIF5B-RET-BaF3, and wild-type BaF3 (Proc. Natl. Acad. Sci. USA., 2006, 103, 3153-8.). The growth of the cell lines stably transfected with kinase CCDC6-RET-BaF3, KIF5B-RET-BaF3 depends on their kinase activity. […]
readout_type: GI50 (nM)

// known answers, use as guide
compound: CN1CCN(Cc2ccc(NC(=O)c3cc(Oc4nc(-c5ccsc5)nc5c4ncn5C)ccc3Cl)cc2C(F)(F)F)CC1
readout_type: GI50
quantitative_readout: 1680

compound: Cc1ccc(Oc2cc(-c3ccncc3)nc3[nH]ccc23)cc1C(=O)Nc1cc(CN2CCN(C)CC2)cc(C(F)(F)F)c1
readout_type: GI50
quantitative_readout: 2960

compound: Cc1ccc(C(=O)Nc2ccc(CN3CCN(C)CC3)c(C(F)(F)F)c2)cc1Oc1nc(-c2ccncc2)nc2[nH]cnc12
readout_type: GI50
quantitative_readout: 504

a = CN1CCN(Cc2ccc(NC(=O)c3cc(Oc4nc(-c5cccnc5)nc5c4cnn5C)ccc3Cl)cc2C(F)(F)F)CC1
b = Cc1ccc(C(=O)Nc2ccc(CN3CCN(C)CC3)c(C(F)(F)F)c2)cc1Oc1cc(-c2cccnc2)nc2c1ccn2C
Given the listed records, identify the one among a and b with higher GI50. Answer format: the label of the selected item. a
(a: 4170 nM, b: 1170 nM)

a = Cc1ccc(Oc2nc(-c3cccnc3)nc3ccsc23)cc1C(=O)Nc1ccc(CN2CCN(C)CC2)c(C(F)(F)F)c1
b = CN1CCN(Cc2ccc(NC(=O)c3cc(Oc4nc(-c5cccc(N)c5)nc5nn(C)cc45)ccc3Cl)cc2C(F)(F)F)CC1
Could you tell me which of a and b has the lower GI50 reading? Write down the label attached to your selection. b
(b: 172 nM, a: 3240 nM)

---

Biological target: KIF5B-RET-BaF3 (Homo sapiens)
Construct: fused on or other part: P33176 (Kinesin-1 heavy chain)
Assay: Growth inhibition of KIF5B-RET-BaF3 cells stably transfected with kinase (MTS)
Type: cell-based
Details: 48 h, read-out: KIF5B-RET (IC50/nM)
readout_type: GI50 (nM)

Study these solved cases before continuing.
molecule: Cc1ccc(C(=O)Nc2ccc(CN3CCN(C)CC3)c(C(F)(F)F)c2)cc1Oc1nc(-c2ccncc2)nc2[nH]ncc12 [II-m-21]
target_entity: KIF5B-RET-BaF3 (Homo sapiens)
scale_unit: nM
GI50: 240

molecule: CN1CCN(Cc2ccc(C(=O)Nc3cc(Oc4nc(-c5ccncc5)nc5cc[nH]c45)ccc3Cl)cc2C(F)(F)F)CC1 [III-k-2]
target_entity: KIF5B-RET-BaF3 (Homo sapiens)
scale_unit: nM
GI50: 17.2

molecule: CN1CCN(Cc2ccc(NC(=O)c3cc(Oc4nc(-c5ccc(O)cc5)nc5nn(C)cc45)ccc3Cl)cc2C(F)(F)F)CC1 [IV-o-7]
target_entity: KIF5B-RET-BaF3 (Homo sapiens)
scale_unit: nM
GI50: 1610

I = CN1CCN(Cc2ccc(NC(=O)c3cccc(Oc4nc(-c5ccncc5)nc5c4ncn5C)c3)cc2C(F)(F)F)CC1 [I-l-3]
II = Cc1ccc(NC(=O)c2ccc(CN3CCN(C)CC3)c(C(F)(F)F)c2)cc1Oc1ncnc2c1cnn2C [II-i-3]
Hi! Which is lower in terms of GI50, the first one I or the second one II ? Write the label of whichever entry you select. I

1 = Cc1ccc(NC(=O)c2ccc(CN3CCN(C)CC3)c(C(F)(F)F)c2)cc1Oc1nc(-c2cccnc2)nc2ccn(C)c12 [III-i-3]
2 = Cc1ccc(C(=O)Nc2ccc(CN3CCN(C)CC3)c(C(F)(F)F)c2)cc1Oc1nc(N2CCN(C)CC2)nc2c1cnn2C [II-m-17]
Min GI50? 1 | 2 Mark your selection by writing its label. 2

---

Molecular target: KIF5B-RET-BaF3 (Homo sapiens, UniProt P07949)
Construct: fused on or other part: P33176 (Kinesin-1 heavy chain)
Assay: Growth inhibition of KIF5B-RET-BaF3 cells stably transfected with kinase (MTS)
Assay type: cell-based
Conditions: 48 h, read-out: KIF5B-RET (IC50/nM)
Experimental: Growth inhibitory activity of compounds on cell lines stably transfected with kinase The activity of compounds against kinase RET is evaluated by their effect of inhibiting growth of cell lines stably transfected with kinase CCDC6-RET-BaF3, KIF5B-RET-BaF3, and wild-type BaF3 (Proc. Natl. Acad. Sci. USA., 2006, 103, 3153-8.). The growth of the cell lines stably transfected with kinase CCDC6-RET-BaF3, KIF5B-RET-BaF3 depends on their kinase activity. […]
readout_type: GI50 (nM)

P = CN1CCN(Cc2ccc(NC(=O)c3cc(Oc4nc(-c5ccncc5)nc5c4ncn5C)ccc3Cl)cc2C(F)(F)F)CC1
Q = Cc1ccc(Oc2nc(-c3cccnc3)nc3cc[nH]c23)cc1C(=O)Nc1cc(CN2CCN(C)CC2)cc(C(F)(F)F)c1
Given the two records P and Q , choose the one whose GI50 value is lower. # answer = label of selected item P

---

Molecular target: CCDC6-RET-BaF3 (Homo sapiens, UniProt P07949)
Construct: fused on or other part: Q16204 (Coiled-coil domain-containing protein 6)
Sequence (P07949 whole entry, change not shown, the tested form may be a part): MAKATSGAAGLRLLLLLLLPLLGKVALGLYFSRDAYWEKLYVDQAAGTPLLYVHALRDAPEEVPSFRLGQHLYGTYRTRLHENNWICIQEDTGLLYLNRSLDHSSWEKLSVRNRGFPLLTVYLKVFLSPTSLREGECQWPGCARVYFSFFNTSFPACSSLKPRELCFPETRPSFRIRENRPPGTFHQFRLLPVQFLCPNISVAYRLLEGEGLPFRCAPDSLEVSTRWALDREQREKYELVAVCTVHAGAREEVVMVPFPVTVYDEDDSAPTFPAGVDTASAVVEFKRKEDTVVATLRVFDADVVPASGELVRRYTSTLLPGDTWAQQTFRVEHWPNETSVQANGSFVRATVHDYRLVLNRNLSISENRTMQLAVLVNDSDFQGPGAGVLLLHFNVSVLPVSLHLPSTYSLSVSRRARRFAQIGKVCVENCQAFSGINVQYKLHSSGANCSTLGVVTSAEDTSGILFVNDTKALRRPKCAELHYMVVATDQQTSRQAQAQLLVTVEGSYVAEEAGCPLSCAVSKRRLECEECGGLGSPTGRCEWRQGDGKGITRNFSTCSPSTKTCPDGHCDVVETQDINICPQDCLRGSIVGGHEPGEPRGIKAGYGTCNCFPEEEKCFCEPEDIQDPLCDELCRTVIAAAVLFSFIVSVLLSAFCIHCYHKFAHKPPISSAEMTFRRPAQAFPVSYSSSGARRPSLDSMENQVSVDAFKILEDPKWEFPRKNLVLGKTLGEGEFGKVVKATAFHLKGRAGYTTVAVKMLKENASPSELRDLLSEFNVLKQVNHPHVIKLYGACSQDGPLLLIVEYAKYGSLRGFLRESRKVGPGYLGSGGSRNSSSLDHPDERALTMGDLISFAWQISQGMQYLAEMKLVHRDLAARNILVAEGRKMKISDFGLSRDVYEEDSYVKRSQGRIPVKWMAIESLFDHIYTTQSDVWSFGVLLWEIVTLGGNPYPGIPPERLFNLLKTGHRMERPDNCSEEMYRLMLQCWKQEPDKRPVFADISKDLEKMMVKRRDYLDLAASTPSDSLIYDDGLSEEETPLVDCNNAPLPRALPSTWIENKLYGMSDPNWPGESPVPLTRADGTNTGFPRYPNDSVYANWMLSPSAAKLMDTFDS
Assay: Growth inhibition of CCDC6-RET-BaF3 cells stably transfected with kinase (MTS)
Format: cell-based
Conditions: 48 h, read-out: CCDC6-RET (IC50/nM)
readout_type: GI50 (nM)

compound: Cc1ccc(C(=O)Nc2ccc(CN3CCN(C)CC3)c(C(F)(F)F)c2)cc1Oc1nc(N(C)C)nc2ccn(C)c12
target_entity: CCDC6-RET-BaF3 (Homo sapiens, UniProt P07949)
quantitative_readout: 3120

I = Cc1ccc(C(=O)Nc2ccc(CN3CCN(C)CC3)c(C(F)(F)F)c2)cc1Oc1nc(-c2ccncc2)nc2c1ncn2C
II = CN1CCN(Cc2ccc(C(=O)Nc3cccc(Oc4nc(-c5cccnc5)nc5cc[nH]c45)c3)cc2C(F)(F)F)CC1
III = CC(=O)NC1CCN(c2ccc(NC(=O)c3ccc(C)c(Oc4nc(-c5ccncc5)nc5ccn(C)c45)c3)cc2C(F)(F)F)CC1
Falling order of GI50, please. Give me the labels in the order the question wants. III, II, I

1 = Cc1ccc(C(=O)Nc2ccc(CN3CCN(C)CC3)c(C(F)(F)F)c2)cc1Oc1ncnc2ccn(C)c12
2 = CCC(=O)NCC1CCN(c2ccc(NC(=O)c3ccc(C)c(Oc4nc(-c5cccnc5)nc5[nH]ncc45)c3)cc2C(F)(F)F)CC1
3 = CCS(=O)(=O)NC1CCN(c2ccc(NC(=O)c3ccc(C)c(Oc4nc(-c5ccncc5)nc5c4cnn5C)c3)cc2C(F)(F)F)CC1
4 = Cc1ccc(C(=O)Nc2ccc(CN3CCN(C)CC3)c(C(F)(F)F)c2)cc1Oc1nc(NC2CC2)nc2c1cnn2C
Which order do these items take when sorted by rising GI50? List them. Sort and list the labels as requested. 4, 3, 1, 2
(4: 9.31 nM, 3: 114 nM, 1: 597 nM, 2: 2490 nM)

---

Target: KIF5B-RET-BaF3 (Homo sapiens, UniProt P07949)
Construct: fused on or other part: P33176 (Kinesin-1 heavy chain)
Assay: Growth inhibition of KIF5B-RET-BaF3 cells stably transfected with kinase (MTS)
Format: cell-based
Conditions: 48 h, read-out: KIF5B-RET (IC50/nM)
readout_type: GI50 (nM)

Record excerpt, results attached:
molecule: Cc1ccc(Oc2cc(-c3cccnc3)nc3sccc23)cc1NC(=O)c1ccc(CN2CCN(C)CC2)c(C(F)(F)F)c1 [VII-j-1]
target_entity: KIF5B-RET-BaF3 (Homo sapiens, UniProt P07949)
scale_unit: nM
quantitative_readout: 1280
//
molecule: CN1CCN(Cc2ccc(NC(=O)c3cc(Oc4nc(-c5cccnc5)nc5ccsc45)ccc3Cl)cc2C(F)(F)F)CC1 [VI-o-1]
target_entity: KIF5B-RET-BaF3 (Homo sapiens, UniProt P07949)
scale_unit: nM
quantitative_readout: 2870

P = Cc1ccc(-c2nc(Oc3cc(C(=O)Nc4ccc(CN5CCN(C)CC5)c(C(F)(F)F)c4)ccc3C)c3[nH]ccc3n2)cc1 [III-m-4]
Q = CCC(=O)NCC1CCN(c2ccc(NC(=O)c3ccc(C)c(Oc4nc(-c5ccncc5)nc5c4cnn5C)c3)cc2C(F)(F)F)CC1 [II-v-9]
Which shows the larger GI50 value: P or Q ? In your reply, give the label of the chosen option. P
